Protocol Notes: in vitro
Measurement Setup: human, U-87 MG cell viability (%)
Property Name: viability at 2.5 µM (%)
Reply numerically in %, unit not repeated.

The reported viability at 2.5 µM of the compound CCN(CC)CCNC(=O)c1c(C)[nH]c(/C=C2\C(=O)Nc3ccc(F)cc32)c1C [Sunitinib] was 106

----------
Protocol Notes: in vitro
Measurement Setup: African green monkey, Cell viability (%)
Property Name: viability at 1.25 µM (%)
Reply numerically in %, unit not repeated.

The reported viability at 1.25 µM of the compound CN(C)C(=O)C(CCN1CCC(O)(c2ccc(Cl)cc2)CC1)(c1ccccc1)c1ccccc1 [Lopera-mide] was 121

----------
Protocol Notes: in vitro
Measurement Setup: human, U-87 MG cell viability (%)
The entries below come with measured viability at 6.67 µM values attached.
Reply numerically in %, unit not repeated.

compound="CC(C)(C)c1cc(/C=C(\\C#N)C(N)=S)cc(C(C)(C)C)c1O [Tyrphos-tin AG 879]" unit_of_measurement=% measurement=78.3

# input for lookup
The reported viability at 6.67 µM of the compound CC(C)(C)c1cc(C=C(C#N)C#N)cc(C(C)(C)C)c1O [Tyrphostin A9] was 78.3

----------
Protocol Notes: in vitro
Measurement Setup: African green monkey, Cell viability (%), 1.25 μM
Property Name: viability at 1.25 µM (%)
Reply numerically in %, unit not repeated.

mol_smiles=CC(C)(C)c1cc(C=C(C#N)C#N)cc(C(C)(C)C)c1O measurement=111
mol_smiles=CC(C)(C)c1cc(/C=C(\C#N)C(N)=S)cc(C(C)(C)C)c1O measurement=87.2

The reported viability at 1.25 µM of the molecule O=C1NCN(c2ccccc2)C12CCN(CCCC(c1ccc(F)cc1)c1ccc(F)cc1)CC2 was 108

----------
Protocol Notes: in vitro
Measurement Setup: human, U-87 MG cell viability (%)
Property Name: viability at 20 µM (%)
Reply numerically in %, unit not repeated.

mol_smiles=CC(C)(C)c1cc(/C=C(\C#N)C(N)=S)cc(C(C)(C)C)c1O property_name="viability at 20 µM" measurement=70.1
mol_smiles=CCN(CC)CCNC(=O)c1c(C)[nH]c(/C=C2\C(=O)Nc3ccc(F)cc32)c1C property_name="viability at 20 µM" measurement=44.6

The reported viability at 20 µM of the compound CC(C)(C)c1cc(C=C(C#N)C#N)cc(C(C)(C)C)c1O was 70.1

----------
The entries below come with measured CC50 values attached.
Protocol Notes: in vitro
Measurement Setup: human

molecule="C=CC(=O)N1CCC[C@@H](n2nc(-c3ccc(Oc4ccccc4)cc3)c3c(N)ncnc32)C1 [Ibrutinib]" property_name=CC50 measurement="> 20 µM"

# input for lookup
The reported CC50 of the molecule CNC(=O)CN1CCC(Oc2cc3c(Nc4cccc(Cl)c4F)ncnc3cc2OC)CC1 [Sapitinib] was > 20 µM

----------
Protocol Notes: in vitro
Measurement Setup: African green monkey, Cell viability (%), 5 μM
The entries below come with measured viability at 5 µM values attached.
Reply numerically in %, unit not repeated.

Examples with their reported viability at 5 µM follow.
mol_smiles=CC(=O)O[C@@H]1C[C@H]2C(C)(C)C(=O)C=C[C@]2(C)[C@H]2CC[C@@]3(C)[C@H](c4ccoc4)OC(=O)[C@H]4O[C@]43[C@@]21C measurement=82.9
mol_smiles=CNc1ccc2oc(C[C@H]3O[C@@]4(CC[C@H]3C)O[C@H]([C@H](C)C(=O)c3ccc[nH]3)[C@H](C)C[C@H]4C)nc2c1C(=O)O measurement=93.5

# input for lookup
The reported viability at 5 µM of the compound O=C1NCN(c2ccccc2)C12CCN(CCCC(c1ccc(F)cc1)c1ccc(F)cc1)CC2 was 94
